Each recorded value in this set is attributed to patent US20230357241A1.

Provide the recorded clearance for the entries that follow.
measurement.description: Pharmacokinetic study in rats
Type: in vivo
condition.set: male, SD, plasma, 1 mg/kg; rat, IV, 1 mpk
Counter-ions that a name gives are not always drawn.
Numbers only here, please. The scale is mL/min/kg.

Prompt: # query: clearance of entry Cl.FC(F)(F)c1ccc(CNc2ccc(Cc3c[nH]c4ncc(Cl)cc34)cn2)cn1 [PLX-3397, Pexidartinib, reference compound]
Response: 4.64

Prompt: And then CNC(=O)c1nccc2c(-c3cnc(Nc4ccc(OC5CC5)nc4)cc3C)c[nH]c12 [Compound 1 hydrochloride] , what is it?
Response: 0.61
